Exercise: state measured IC50 for each of the compounds provided.
# Tested on: granulocyte-macrophage progenitors (CFU-GM)
# Protocol: cells
# Assay setup: Homo sapiens, CFU-GM, read-out: Continuous Exposure IC50, CFU-GM
Report field: quantity (unit follows the number).

(Q) # IC50 lookup, item `CCN(CC)CCCNc1ccc(NCCCN(CC)CC)c2c1C(=O)c1ccccc1C2=O`
(A) 1.4 µM

(Q) # IC50 lookup, item `O=C1c2ccccc2C(=O)c2c(NCCCN3CCOCC3)ccc(NCCCN3CCOCC3)c21`
(A) 7.8 µM

(Q) # IC50 lookup, item CC[C@]1(O)C[C@@H]2CN(CCc3c([nH]c4ccccc34)[C@@](C(=O)OC)(c3cc4c(cc3OC)N(C)[C@H]3[C@@](O)(C(=O)OC)[C@H](OC(C)=O)[C@]5(CC)C=CCN6CC[C@]43[C@@H]65)C2)C1 [VLB, reference compound]
(A) 0.00028 µM

----------
# Protocol: in vitro
# Assay setup: human, cfu-gm vs mcf7 adr 10, toxicity to CFU-GM relative to MDR cells
# Experimental: Myelosuppression is often a dose limiting side effect of chemotherapeutic agents. […] The toxicities to human granulocyte-macrophage progenitors (CFU-GM) of 1b, 1c, and VLB was assessed by measuring inhibition of CFU-GM proliferation in cultures continuously exposed to each agent alone and compared to the toxicities to sensitive and resistant MCF7 in tumor cell clonogenic assays. METHOD: The CFLI-GM assay measures clonal proliferation of granulocyte/macrophage precursors in semisolid agar cultures. […]
Measurement kind: selectivity ratio

(Q) # selectivity ratio lookup, item CC[C@]1(O)C[C@@H]2CN(CCc3c([nH]c4ccccc34)[C@@](C(=O)OC)(c3cc4c(cc3OC)N(C)[C@H]3[C@@](O)(C(=O)OC)[C@H](OC(C)=O)[C@]5(CC)C=CCN6CC[C@]43[C@@H]65)C2)C1 [VLB, reference compound]
(A) ~1000

----------
# Protocol: in vitro
# Assay setup: human, cfu-gm vs mcf7, lower sensitivity of CFU-GM than drug sensitive (WT) and MDR cancer cell lines
Measurement kind: selectivity ratio

(Q) # selectivity ratio lookup, item O=C1c2ccccc2C(=O)c2c(NCCCN3CCOCC3)ccc(NCCCN3CCOCC3)c21 [Compound 1c]
(A) 10 to 20

----------
# Test system: PKC
# Protocol: Micellar PKC screening assay
# Type: biochemical
Measurement kind: PKC activity in micellar PKC screening assay

O=C1c2c(O)ccc(O)c2C(=O)c2c(NCCNCCO)ccc(NCCNCCO)c21 [mitoxantrone, reference compound]: PKC inhibitor
CCN(CC)CCCNc1ccc(NCCCN(CC)CC)c2c1C(=O)c1ccccc1C2=O [Compound 1b]: PKC inhibitor

----------
Exercise: state measured selectivity ratio for each of the compounds provided.
# Protocol: in vitro
# Assay setup: human, CFU-GM Toxicity Index (CFU-GM IC50 / Tumor Cell Clonogenic IC50)
Write no unit; give the number alone.

(Q) # selectivity ratio lookup, item `CCN(CC)CCCNc1ccc(NCCCN(CC)CC)c2c1C(=O)c1ccccc1C2=O`
(A) 3.5

(Q) # selectivity ratio lookup, item `O=C1c2ccccc2C(=O)c2c(NCCCN3CCOCC3)ccc(NCCCN3CCOCC3)c21`
(A) 9.8

----------
# Test system: MCF7 Adr 10
# Protocol: Tumor cell clonogenic assay, MCF7 ADR 10
# Assay type: cell-based, human
# Assay setup: Homo sapiens, NCI/ADR-RES; tumor cell clonogenic assay, 10-12 days; read-out: Continuous Exposure IC50, MCF7 ADR 10
Measurement kind: pIC50
// pIC50: -log10(molar conc.)

(Q) # pIC50 lookup, item O=C1c2ccccc2C(=O)c2c(NCCCN3CCOCC3)ccc(NCCCN3CCOCC3)c21 [Compound 1c]
(A) 6.40

(Q) # pIC50 lookup, item CCN(CC)CCCNc1ccc(NCCCN(CC)CC)c2c1C(=O)c1ccccc1C2=O [Compound 1b]
(A) 6.15
